Hey, just so you know, these numbers are from patent US6949566B2.

The following molecules are listed with their measured IC50 values.
# study system: MMP-9 (Homo sapiens)
# Construct: endogenous in cells; host or cells: HT1080 human fibrosarcoma cells, TPA-stimulated; enzyme purified from conditioned medium
# Sequence (P14780 107-707 limits assumed): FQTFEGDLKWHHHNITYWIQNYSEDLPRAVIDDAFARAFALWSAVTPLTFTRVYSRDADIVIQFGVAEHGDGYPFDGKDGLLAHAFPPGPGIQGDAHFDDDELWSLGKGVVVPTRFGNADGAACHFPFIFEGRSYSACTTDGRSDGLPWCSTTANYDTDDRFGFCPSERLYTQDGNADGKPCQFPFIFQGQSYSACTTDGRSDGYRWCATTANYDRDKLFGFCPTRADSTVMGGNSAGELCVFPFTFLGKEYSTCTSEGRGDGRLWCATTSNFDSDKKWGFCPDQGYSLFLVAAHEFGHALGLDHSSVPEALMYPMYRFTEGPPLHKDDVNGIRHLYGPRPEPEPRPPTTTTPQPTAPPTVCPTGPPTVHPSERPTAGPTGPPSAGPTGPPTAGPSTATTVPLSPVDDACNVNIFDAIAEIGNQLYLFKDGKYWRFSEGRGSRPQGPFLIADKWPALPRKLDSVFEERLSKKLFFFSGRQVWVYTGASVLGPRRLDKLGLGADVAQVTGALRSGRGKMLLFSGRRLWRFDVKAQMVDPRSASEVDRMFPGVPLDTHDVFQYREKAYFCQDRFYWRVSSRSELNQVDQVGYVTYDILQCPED
# method description: Assay for inhibitory activities on MMPs (fluorogenic peptide substrate), MMP-9
# Format: biochemical
# applied conditions: MMP-9 from HT1080 cells, activated by TPCK-Trypsin; substrate MOCAc-Pro-Leu-Gly-Leu-A2Pr(DNP)-Ala-Arg-NH2
Number first, unit second.

These solved cases illustrate the format of a correct answer.
CC(C)[C@@H](NS(=O)(=O)c1ccc(-c2ncc(-c3ccc4ccccc4c3)o2)cc1)C(=O)O : 88.6 nM
CC(C)[C@H](NS(=O)(=O)c1ccc(-c2ncc(-c3ccccc3)o2)cc1)C(=O)O : 144 nM
C[C@@H](NS(=O)(=O)c1ccc(-c2ncc(-c3ccc4ccccc4c3)s2)cc1)C(=O)O : 173 nM
C[C@@H](NS(=O)(=O)c1ccc(-c2ncc(-c3ccc(Br)cc3)o2)cc1)C(=O)O : 135 nM
O=C(O)[C@H](Cc1ccccc1)NS(=O)(=O)c1ccc(-c2ncc(-c3ccc(Cl)cc3)o2)cc1 : 758 nM
C[C@H](NS(=O)(=O)c1ccc(-c2ncc(-c3ccc(Cl)cc3)s2)cc1)C(=O)O : 54.4 nM

Okay, next one:
Measured on MMP-9 (Homo sapiens), CC(C)[C@@H](NS(=O)(=O)c1ccc(-c2ncc(-c3ccc(Cl)cc3)s2)cc1)C(=O)O has a documented IC50 of 5.71 nM
